# Tested on: luciferase-based reporter constructs in S2R+ cells
# assay_explanation: Luciferase-based mutation reporter assay (sgRNA mutation efficiency)
# Type: cell-based, Drosophila
# experimental_conditions: sgRNAs with no mismatches targeting luciferase-based reporter in S2R+ cells; mutation rate = 1/Firefly luciferase normalized to Renilla
Mean efficiency for assorted substances
In your answer, state the number alone without any accompanying words.

Below, 3 substances whose answers are already recorded.
>>> assay_value("GGAATAACCACGTCCCGCGT: sgRNA targeting a luciferase-based reporter construct, no mismatches (chemistry not given here)")
0.2894
>>> assay_value("AAACAGAAGGTCTTCCCCAA: sgRNA targeting a luciferase-based reporter construct, no mismatches (chemistry not given here)")
0.3046
>>> assay_value("GGATGTTCCGGCACAACGCC: sgRNA targeting a luciferase-based reporter construct, no mismatches (chemistry not given here)")
0.2753

Consider the additional substance presented here.
input: Look up luciferase-based reporter constructs in S2R+ cells data: Mean efficiency of GCATGCCCACCTTATCGGCG: sgRNA targeting a luciferase-based reporter construct, no mismatches (chemistry not given here) , then report it.
output: 0.1169
